Numbers sourced from patent US20210395718A1.

- assay_comment: Thermal stability: residual activity after incubation at 60° C. for one hour
- Format: biochemical
- run_conditions: crude recombinant enzyme; after incubation at 60° C. for 1 hour
endpoint: Residual activity (%)

Exercise: Give the measured Residual activity (%) of Ketose 3-epimerase mutant 23: amino acid-substituted mutant of SEQ ID NO: 1 (protein, Arthrobacter histidinolovorans) MKIGCHGLVWTGRFDAEGIRYSVQKTKEAGFDLIEFPLMDPFSFDVATAKSALAEHGLTASASLGLSEATDVSSEDPAIVKAGEELLNRALDVLAELGATDFCGVIYSAMKKYMEPATEQGLSNSKAAVGRVVDRAAGLGINVSLEVVNRYETNVLNTGRQALSYLSDVKRGNLGVHLDTYHMNIEESDMFSPVLDTAEALKYVHIGESHRGYLGTGSVDFDNFFKALGRIGYDGPVVFESFSSAVVAPDLSRMLGIWRNLWADNEELGAHANAFIRDKLTAIKTIELH .
Solution: 65.8%

Exercise: Give the measured Residual activity (%) of Ketose 3-epimerase mutant 13: amino acid-substituted mutant of SEQ ID NO: 1 (protein, Arthrobacter histidinolovorans) MKIGCHGLVWTGRFDAEGIRYSVQKTKEAGFDLIEFPLMDPFSFDVATAKSALAEHGLTASASLGLSEATDVSSEDPAIVKAGEELLNRALDVLAELGATDFCGVIYSAMKKYMEPATEQGLSNSKAAIGRVVDRAAGLGINVSLEVVNRYETNVLNTGRQALSYLSDVKRPNLGVHLDTYHMNIEESDMFSPVLDTAEVLKYVHIGESHRGYLGTGSVDFDNFFKALGRIGYDGPVVFESFSSAVVAPDLSRMLGIWRNLWADNEELGAHANAFIRDKLTAIKTIELH .
Solution: 83.7%

Exercise: Give the measured Residual activity (%) of Ketose 3-epimerase mutant 30: amino acid-substituted mutant of SEQ ID NO: 1 (protein, Arthrobacter histidinolovorans) MKIGCHGLVWTGRFDAEGIRYSVQKTKEAGFDLIEFPLMDPFSFDVATAKSALAEHGLTASASLGLSEATDVSSEDPAIVKAGEELLNRALDVLAELGATDFCGVIYSAMKKYMEPATEQGLSNSKAAVGRVVDRAAGLGINVALEVVNRYETNVLNTGRQALSYLSDVKRPNLGVHLDTYHMNIEESDMFSPVLDTAEALKYVHIGESHRGYLGTGSVDFDNFFKALGRIGYDGPVVFESFSSAVVAPDLSRMLGIWRNLWADNEELGAHANAFIRDKLTAIKTIELH .
Solution: 66.9%

Exercise: Give the measured Residual activity (%) of Ketose 3-epimerase mutant 18: amino acid-substituted mutant of SEQ ID NO: 1 (protein, Arthrobacter histidinolovorans) MKIGCHGLVWTGRFDAEGIRYSVQKTKEAGFDLIEFPLMDPFSFDVATAKSALAEHGLTASASLGLSEATDVSSEDPAIVKAGEELLNRALDVLAELGATEFCGVIYSAMKKYMEPATEQGLSNSKAAVGRVVDRAAGLGINVSLEVVNRYETNVLNTGRQALSYLSDVKRPNLGVHLDTYHMNIEESDMFSPVLDTAEALKYVHIGESHRGYLGTGSVDFDNFFKALGRIGYDGPVVFESFSSAVVAPDLSRMLGIWRNLWADNEELGAHANAFIRDKLTAIKTIELH .
Solution: 72.1%
